# Tested on: SW-620 colon
# RUN_DESCRIPTION: NCI tumour cell line growth inhibition, 48 h
Reported TGI values for a set of compounds

Some entries whose results are on file:
COMPOUND	TGI
COc1ccc2nc3c(nc2c1)C(C)(C)C=C3c1ccc(Br)cc1	21.9 µM
COc1cccc(/C=C/C(=O)c2cc3c(N)c(C(=O)Nc4ccccc4)sc3nc2C)c1	3.09 µM
COc1ccc(-c2oc(C=Nc3ccccc3)c([N+](=O)[O-])c2-c2ccc(OC)c(OC)c2)cc1OC	> 100 µM
COc1cc2c(cc1OC)C/C(=N\O)c1cc(OC)c(OC)cc1/C=C\2	> 90.6 µM
Cc1cc2nc3c(C)c4ccccc4c(C)n3c2cc1C	> 10 µM

[ask] Endpoint output: TGI of O=C1C2=C(c3ccccc31)C(c1ccc([N+](=O)[O-])cc1)NC(=S)N2 (configuration not stated) . Value?
[reply] > 100 µM

[ask] Endpoint output: TGI of CN(C)CCNC(=O)c1cccc2c(NC(CCCN=C(N)N)C(=O)O)c3ccccc3nc12 (configuration not stated) . Value?
[reply] > 100 µM

[ask] Endpoint output: TGI of Cc1ccc2c(=O)cc(-c3ccccc3)[nH]c2n1 . Value?
[reply] > 100 µM

[ask] Endpoint output: TGI of COc1c(C(=O)CC2c3c(cc4oc(C)cc(=O)c4c3OC)OC(=N)C2c2nc3ccccc3[nH]2)c(O)c(OC)c2occc12 (configuration not stated) . Value?
[reply] > 100 µM

[ask] Endpoint output: TGI of Nc1nc(Cl)cc(Oc2ccc(Cl)cc2)n1 . Value?
[reply] > 100 µM

[ask] Endpoint output: TGI of C=C1C(=O)O[C@H]2[C@H]1CC/C(COC(=O)NCCc1ccc(Br)cc1)=C\CC[C@@]1(C)O[C@@H]21 . Value?
[reply] 2.4 µM

====

# Test system: UO-31 renal
# RUN_DESCRIPTION: NCI tumour cell line growth inhibition, 48 h
ASSAY_ENDPOINT: TGI

Some entries whose results are on file:
MOLECULE	RESULT
O=C1/C(=C/Cc2ccco2)N=C(c2ccccc2)N1c1nc2ccc(Sc3ccccc3)cc2[nH]1	50.6 µM
CCN(Cc1c(F)cccc1C(F)(F)F)c1ccc(CO)c(Cl)c1	28.3 µM
O=C(COc1ccc(Cl)cc1Cl)NNc1ccc([N+](=O)[O-])cc1	> 100 µM

[ask] Endpoint output: TGI of COC(=O)C1(N2CCOCC2)CCC([C@@H](c2ccccc2)C(C)[N+](=O)[O-])C1 (some centres undefined) . Value?
[reply] > 100 µM

[ask] Endpoint output: TGI of CCCCCCCC(=O)[O-].N.N.N.N.N.[Co+3].[O-][Cl+3]([O-])([O-])[O-] . Value?
[reply] > 100 µM

====

# Test system: HOP-92 NSCLC
# RUN_DESCRIPTION: NCI tumour cell line growth inhibition, 48 h
ASSAY_ENDPOINT: TGI

Some entries whose results are on file:
COMPOUND	TGI
COc1ccc(/C=N/NC(=O)NCCNCCO)cc1	> 100 µM
Nc1nc(Cl)cc(Oc2ccc(Cl)cc2)n1	> 100 µM
CN1C(=O)c2c(c3c4ccccc4n(C)c3c3c2c2ccccc2n3C)C1=O	> 100 µM

[ask] Endpoint output: TGI of Oc1ccc(Cl)cc1N=Nc1c(O)ccc2ccccc12 . Value?
[reply] > 100 µM

[ask] Endpoint output: TGI of COc1ccc(CC2OC3(CCCCC3)CC3CCCCN32)cc1 (configuration not stated) . Value?
[reply] > 100 µM

[ask] Endpoint output: TGI of O=c1[nH]c(C2CCCCC2)nc2ccc(Cl)cc12 . Value?
[reply] > 100 µM

[ask] Endpoint output: TGI of Cc1ccccc1C1SCc2nc3ccccc3n21 (configuration not stated) . Value?
[reply] 49.5 µM

[ask] Endpoint output: TGI of CC(=O)Nc1ccc(S(=O)(=O)Nc2cnc3ccccc3n2)cc1 . Value?
[reply] > 100 µM

[ask] Endpoint output: TGI of COc1cc(OC)c(OC)cc1/C=C/c1ccc2ccccc2n1 . Value?
[reply] > 10 µM

[ask] Endpoint output: TGI of CC(=O)Nc1ccc2c(c1)[nH]c(=O)c1cc(NC(C)=O)ccc12 . Value?
[reply] > 100 µM

[ask] Endpoint output: TGI of COc1cc(/C=C/[N+](=O)[O-])cc(OC)c1 . Value?
[reply] 20.5 µM

[ask] Endpoint output: TGI of CCOC(=O)C(NS(=O)(=O)c1ccccc1)(C(F)(F)F)P(=O)(OCC(C)C)OCC(C)C (configuration not stated) . Value?
[reply] > 100 µM
